Each recorded value in this set is attributed to a melting point compilation (Tetko et al.; mined from patent text by program, amines drawn as free bases though some values may be those of a salt).

Let's look at some compounds and their measured melting point.

Past entries and their recorded results:
COc1cccc(OC)c1-c1ccc(C[C@H](NC(=O)c2c(Cl)ccc(Br)c2Cl)C(=O)O)cc1: 235 °C
CC1(C)C(=O)N(CC#CI)C(=O)N1Cc1ccccc1: 109 to 112 °C
COc1ccccc1CN=C(Cc1ccccc1)N1CC2C(=O)CCC(c3ccccc3)(c3ccccc3)C2C1 (stereo unspecified): 146 °C
Cc1cccc2c1CCC2NC(=S)NCCO (stereo unspecified): 90 to 93 °C
COC(=O)NC1CCc2ccsc2C1 (stereo unspecified): 156 to 157 °C

(Q) Determine its reported melting point: Nc1ncc(Br)n2nc(SCc3ccccc3)nc12
(A) 149 to 150 °C

(Q) Determine its reported melting point: Cn1cc(C(=O)NS(=O)(=O)c2cccs2)cn1
(A) 174 to 180 °C

(Q) Determine its reported melting point: CC(CN)C1=CC(C)(C(=O)O)CC=C1 (stereo unspecified)
(A) 236 to 238 °C

(Q) Determine its reported melting point: CN1CCN(c2ncc(-c3cnc4c(c3)N(Cc3c(F)ccc(F)c3Cl)CCN4)cn2)CC1
(A) 194 to 195 °C

(Q) Determine its reported melting point: COc1ccc(N2CCN(c3c(C)c(C)c4c(c3C)C(O)(c3ccsc3)C(C)(C)O4)CC2)cc1 (stereo unspecified)
(A) 131 to 133 °C

(Q) Determine its reported melting point: Cc1ccnc(NC(=O)C2=C(O)c3ccc4ccccc4c3S(=O)(=O)N2C)c1
(A) 221 °C

(Q) Determine its reported melting point: CC(C)=CCC[C@H](C)CC(=NO)C(C[C@@H](C)CCC=C(C)C)=NO
(A) 131 to 132 °C

(Q) Determine its reported melting point: Cc1nc(N2CCCC2)c2ccc(Br)cc2n1
(A) 120 to 122 °C

(Q) Determine its reported melting point: CCN(CC)C(=O)c1cc(-c2ccc(OC)cc2)c2ccsc2c1
(A) 88 °C

(Q) Determine its reported melting point: COC(=O)[C@@H]1Cc2cc(Cl)c(Cl)cc2[C@@H](NC(N)=O)C1 (relative stereo)
(A) 227 to 229 °C

(Q) Determine its reported melting point: O=c1c2c([nH]c3cn[nH]c13)CCCC2
(A) > 325 °C

(Q) Determine its reported melting point: N[C@@H](Cc1cccc(OCC(F)(F)C(F)F)c1)[C@H](O)c1ccc(F)cc1 (racemic)
(A) 77 to 78 °C

(Q) Determine its reported melting point: COc1ccc2c(c1)C(O)C(Cc1ccc(OC)c(OC3CC4CCC3C4)c1)CO2 (stereo unspecified)
(A) 115 to 117 °C

(Q) Determine its reported melting point: CC(C)(C)C1Cc2cc(N3C[C@H](CO)OC3=O)ccc2N1C(=O)OCc1ccccc1 (stereo partly specified)
(A) 141 to 149 °C

(Q) Determine its reported melting point: Clc1ccc2nc3n(c2c1)CCC3
(A) 136 °C

(Q) Determine its reported melting point: COc1ccc(N2C(=O)C(C)N(c3ccc(Oc4ccc(O)cc4)cc3)C2=S)cc1 (stereo unspecified)
(A) 196 to 198 °C
